// provenance: patent US8785453B2

- subjectOfTest: human recombinant serotonin 5-HT2A receptor (Homo sapiens, UniProt P28223)
- Construct: purchased PerkinElmer Life and Analytical Sciences, USA; host or cells: CHO-K1 cells
- Sequence (P28223 whole entry): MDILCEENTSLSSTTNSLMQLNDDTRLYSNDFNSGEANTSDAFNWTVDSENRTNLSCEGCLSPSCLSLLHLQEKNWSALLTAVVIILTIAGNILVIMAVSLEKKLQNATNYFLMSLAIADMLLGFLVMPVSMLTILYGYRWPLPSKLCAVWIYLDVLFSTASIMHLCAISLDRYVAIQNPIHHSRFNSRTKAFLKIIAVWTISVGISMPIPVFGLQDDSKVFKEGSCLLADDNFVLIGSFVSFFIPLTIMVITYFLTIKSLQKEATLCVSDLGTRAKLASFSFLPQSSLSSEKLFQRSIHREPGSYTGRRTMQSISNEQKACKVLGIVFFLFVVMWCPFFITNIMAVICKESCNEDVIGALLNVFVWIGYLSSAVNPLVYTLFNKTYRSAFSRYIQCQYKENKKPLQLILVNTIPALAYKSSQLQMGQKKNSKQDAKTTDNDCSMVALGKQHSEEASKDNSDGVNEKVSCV
- protocolSummary: Binding affinity for serotonin 5-HT2A receptor ([3H]Ketanserin)
- experimentalParameters: CHO-K1 cells, 1 nM [3H]Ketanserin; read-out: binding affinity (IC50) 5-HT2A
Rule for this label: 1 means IC50 is less than 30 nM; -1 means IC50 is at least 30 nM.

Worked set:
{"columns": ["compound", "group"],
 "data": [
  ["Cc1cccc(N2CCN(CCCNc3ncnc4c3nc(C)n4-c3ccc4c(c3)OCCO4)CC2)c1C", 1],
  ["Cc1cccc(N2CCN(CCCNc3ncnc4c3ncn4-c3ccccc3)CC2)c1C", -1],
  ["CCc1nc2c(NCCN3CCN(c4cccc(C)c4C)CC3)ncnc2n1-c1ccc(F)cc1", 1],
  ["Cc1cccc(N2CCN(CCCNc3ncnc4c3nc(-c3ccccc3)n4-c3ccc(F)cc3)CC2)c1C", -1],
  ["CCc1nc2c(NCC(O)CN3CCN(c4cccc(C)c4C)CC3)ncnc2n1-c1ccc2c(c1)OCO2 (stereo not drawn)", -1],
  ["Cc1cccc(N2CCN(CCCNc3ncnc4c3nc(C)n4-c3ccc(Cl)cc3)CC2)c1C", -1],
  ["Cc1c(Cl)cccc1N1CCN(CCCNc2ncnc3c2nc(-c2ccccc2)n3-c2ccccc2)CC1", -1],
  ["Cc1cccc(N2CCN(CCCNc3ncnc4c3ncn4-c3ccc4c(c3)OCCO4)CC2)c1C", 1],
  ["Cc1cccc(N2CCN(CCCNc3ncnc4c3nc(C)n4-c3ccc(C(F)(F)F)cc3)CC2)c1C", -1],
  ["Cc1cccc(N2CCN(CC(O)CNc3ncnc4c3nc(C(C)(C)C)n4C)CC2)c1C (stereo not drawn)", -1]
]}

Input: API: query returns whether the compound falls strictly under 30 nM in IC50. Query: CCCc1nc2c(NCCN3CCN(c4cccc(C)c4C)CC3)ncnc2n1-c1ccccc1
Output: 1

Input: Dear reviewer, please state whether CCc1nc2c(NCCCN3CCN(c4cccc(C)c4C)CC3)ncnc2n1-c1ccc2c(c1)OCO2 has IC50 strictly beneath 30 nM.
Output: -1

Input: Given the entry CCc1nc2c(NCCCN3CCN(c4cccc(C)c4C)CC3)ncnc2n1-c1ccc2c(c1)OCCO2 , would its reported IC50 be below 30 nM?
Output: 1

Input: Please check: IC50 for Cc1cccc(N2CCN(CCNc3ncnc4c3nc(C)n4-c3ccc(F)cc3)CC2)c1C , strictly under 30 nM or not?
Output: -1

Input: Determine whether this compound shows IC50 lower than 30 nM (ties excluded): Cc1cccc(N2CCN(CCCNc3ncnc4c3nc(C)n4C)CC2)c1C
Output: -1

Input: IC50 strictly < 30 nM for this compound? Cc1cccc(N2CCN(CC(O)CNc3ncnc4c3ncn4-c3ccc4c(c3)OCCO4)CC2)c1C (stereo not drawn)
Output: -1

Input: In plain terms, does Cc1cccc(N2CCN(CCCNc3ncnc4c3nc(C)n4-c3ccc4c(c3)OCO4)CC2)c1C come in under 30 nM for IC50?
Output: 1

Input: State whether 30 nM exceeds IC50 recorded for CCc1nc2c(NCCN3CCN(c4cccc(C)c4C)CC3)ncnc2n1-c1ccccc1 .
Output: 1

----------
- subjectOfTest: human recombinant 5-HT2C receptor (Homo sapiens, UniProt P28335)
- Construct: purchased PerkinElmer
- Sequence (P28335 33-458): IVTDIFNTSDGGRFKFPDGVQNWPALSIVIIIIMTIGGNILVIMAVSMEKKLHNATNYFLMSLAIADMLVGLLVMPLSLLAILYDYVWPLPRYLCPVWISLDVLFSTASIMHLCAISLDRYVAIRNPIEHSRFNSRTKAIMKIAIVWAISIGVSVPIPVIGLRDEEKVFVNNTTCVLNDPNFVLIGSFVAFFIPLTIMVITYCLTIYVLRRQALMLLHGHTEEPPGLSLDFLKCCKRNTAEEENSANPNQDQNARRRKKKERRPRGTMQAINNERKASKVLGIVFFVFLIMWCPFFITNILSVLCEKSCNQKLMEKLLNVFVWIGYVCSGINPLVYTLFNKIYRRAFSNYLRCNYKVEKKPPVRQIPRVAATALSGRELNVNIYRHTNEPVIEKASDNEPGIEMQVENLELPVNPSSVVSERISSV
- protocolSummary: Binding affinity for serotonin 5-HT2C receptor ([3H]Mesulergine)
- experimentalParameters: CHO-K1 membranes, 1.3 nM [3H]Mesulergine; read-out: binding affinity (IC50) 5-HT2C
Quick rule for you: IC50 under 200 nM gets yes (1), anything else gets no (0).

{"columns": ["compound", "group"],
 "data": [
  ["CCc1nc2c(NCCN3CCN(c4cccc(C)c4C)CC3)ncnc2n1-c1ccccc1", "yes (1)"],
  ["Cc1cccc(N2CCN(CCCNc3ncnc4c3ncn4-c3ccccc3)CC2)c1C", "no (0)"]
]}

Input: Consider the compound CCCc1nc2c(NCCN3CCN(c4cccc(C)c4C)CC3)ncnc2n1-c1ccccc1 . Is its IC50 strictly less than 200 nM?
Output: yes (1)

Input: I'd appreciate it if you could check whether Cc1cccc(N2CCN(CC(O)CNc3ncnc4c3nc(C)n4-c3ccc4c(c3)OCO4)CC2)c1C (stereo not drawn) has IC50 smaller than 200 nM.
Output: no (0)

Input: Take the compound Cc1cccc(N2CCN(CCCCNc3ncnc4c3nc(-c3ccccc3)n4-c3ccccc3)CC2)c1C and say whether its IC50 is less than 200 nM.
Output: yes (1)

Input: Field: below-cutoff. Rule: recorded IC50 strictly less than 200 nM. Subject: Cc1cccc(N2CCN(CCCNc3ncnc4c3nc(C)n4-c3ccc(F)cc3)CC2)c1C
Output: no (0)

Input: Hi there! Is IC50 for Cc1cccc(N2CCN(CCNc3ncnc4c3nc(-c3ccccc3)n4-c3ccccc3)CC2)c1C below 200 nM, do you know?
Output: no (0)

Input: For this compound, is IC50 lower than 200 nM? Cc1cccc(N2CCN(CCCNc3ncnc4c3ncn4-c3ccc4c(c3)OCO4)CC2)c1C
Output: no (0)

Input: Is IC50 of Cc1cccc(N2CCN(CCCNc3ncnc4c3nc(C)n4-c3ccc(Cl)cc3)CC2)c1C strictly below 200 nM?
Output: no (0)

Input: Hi there! Is IC50 for Cc1cccc(N2CCN(CCCNc3ncnc4c3nc(C)n4C)CC2)c1C below 200 nM, do you know?
Output: no (0)

Input: Given the entry Cc1cccc(N2CCN(CCNc3ncnc4c3nc(-c3cccs3)n4-c3ccccc3)CC2)c1C.Cl [Example 91, hydrochloride] , would its reported IC50 be below 200 nM?
Output: yes (1)

Input: In plain terms, does CCc1nc2c(NCCN3CCN(c4cccc(C)c4C)CC3)ncnc2n1-c1ccc(SC)cc1.Cl [Example 87, hydrochloride] come in under 200 nM for IC50?
Output: yes (1)

Input: A record lists Cc1cccc(N2CCN(CC(O)CNc3ncnc4c3nc(C)n4-c3ccc4c(c3)OCCO4)CC2)c1C (stereo not drawn) . Is its IC50 below 200 nM?
Output: no (0)

Input: I'd appreciate it if you could check whether Cc1cccc(N2CCN(CCCNc3ncnc4c3nc(C)n4-c3ccc4c(c3)OCO4)CC2)c1C has IC50 smaller than 200 nM.
Output: no (0)

Input: Determine whether this compound shows IC50 lower than 200 nM (ties excluded): Cc1cccc(N2CCN(CCCNc3ncnc4c3ncn4-c3ccc4c(c3)OCCO4)CC2)c1C
Output: no (0)

Input: Is it true that IC50 reported for Cc1cccc(N2CCN(CC(O)CNc3ncnc4c3nc(C(C)(C)C)n4C)CC2)c1C (stereo not drawn) is less than 200 nM?
Output: no (0)

Input: Please state whether IC50 is below 200 nM for Cc1cccc(N2CCN(CCCNc3ncnc4c3nc(-c3ccccc3)n4-c3ccc(F)cc3)CC2)c1C
Output: no (0)

----------
# maps each entry to its IC50
- subjectOfTest: human recombinant serotonin 5-HT2A receptor (Homo sapiens, UniProt P28223)
- Construct: purchased PerkinElmer Life and Analytical Sciences, USA; host or cells: CHO-K1 cells
- protocolSummary: Binding affinity for serotonin 5-HT2A receptor ([3H]Ketanserin)
- experimentalParameters: CHO-K1 cells, 1 nM [3H]Ketanserin; read-out: binding affinity (IC50) 5-HT2A
I only need the number, in nM, no unit after it.

Some molecules with known IC50 results, for comparison:
{"columns": ["molecule", "resultUnit", "reported"],
 "data": [
  ["Cc1cccc(N2CCN(CCCCNc3ncnc4c3nc(-c3ccccc3)n4-c3ccccc3)CC2)c1C", "nM", 2.4],
  ["CSc1ccc(-n2c(C)nc3c(NCCCN4CCN(c5cccc(C)c5C)CC4)ncnc32)cc1.Cl [Example 86, hydrochloride]", "nM", 25],
  ["Cc1cccc(N2CCN(CC(O)CNc3ncnc4c3nc(C)n4-c3ccc4c(c3)OCCO4)CC2)c1C (stereo not drawn)", "nM", 54],
  ["CCc1nc2c(NCCCN3CCN(c4cccc(C)c4C)CC3)ncnc2n1-c1ccc(F)cc1", "nM", 66]
]}

Sample Cc1cccc(N2CCN(CCCNc3ncnc4c3nc(-c3ccccc3)n4C)CC2)c1C ; IC50 observed: 36

Item: Cc1cccc(N2CCN(CC(O)CNc3ncnc4c3nc(C)n4-c3ccc4c(c3)OCO4)CC2)c1C (stereo not drawn) | IC50: 106

The reported IC50 of the molecule Cc1cccc(N2CCN(CCNc3ncnc4c3nc(-c3cccs3)n4-c3ccccc3)CC2)c1C.Cl [Example 91, hydrochloride] was 28

Cc1cccc(N2CCN(CCCNc3ncnc4c3ncn4-c3ccc4c(c3)OCO4)CC2)c1C has a reported IC50 of 54

get_value(item= Cc1cccc(N2CCN(CCCNc3ncnc4c3nc(-c3ccccc3)n4-c3ccc4c(c3)OCO4)CC2)c1C , readout=IC50) returns 30

Per the records, this molecule ( CCc1nc2c(NCCN3CCN(c4cccc(C)c4C)CC3)ncnc2n1-c1ccc(SC)cc1.Cl [Example 87, hydrochloride] ) has IC50 equal to 9.3

Cc1cccc(N2CCN(CCNc3ncnc4c3nc(-c3ccccc3)n4-c3ccccc3)CC2)c1C yielded IC50 of 28
